Data credit: paper PMC11704350

System: Nrf2C (DNA, i motif) CCCTCCCGCCCTTGCTCCCTTCCC
measurement-protocol: fluorescent indicator displacement
recorded-conditions: 100 mM KCl; 10 mM sodium cacodylate pH 6.5, room temperature; thiazole orange displaced; 0.5 µM DNA (legend; methods 1 µM)
measurement-name: DC50 (µM)

Guide cases for DC50, answers given:
# molecule, DC50 / µM
records = [
    ("Cc1ccc(NCCN(C)C)c2c(=O)c3cc(O)ccc3sc12", 3.4),
    ("Clc1c(Cl)c(Cl)c2[nH]nnc2c1Cl", 3.2),
]

a = COc1cc(-c2ccc(Nc3ccccc3C(=O)O)c(OC)c2)ccc1Nc1ccccc1C(=O)O
b = C=Cc1cc(OC)c2c(c1)c(=O)oc1c2cc(OC)c2c(O)ccc(C3OC(C)C(O)C(C)(O)C3O)c21 (centres unmarked)
c = Cc1c2ccncc2c(C)c2c1[nH]c1ccccc12
Please rank these molecules by DC50 in descending order. List labels; respect the requested ordering.
b, c, a
(b: 6.3 µM, c: 3.9 µM, a: 2.3 µM)

----------
Test system: Nrf2C (DNA, i motif) CCCTCCCGCCCTTGCTCCCTTCCC
measurement-protocol: fluorescent indicator displacement
recorded-conditions: 100 mM KCl; 10 mM sodium cacodylate pH 6.5, room temperature; thiazole orange displaced; 0.5 µM DNA (legend; methods 1 µM)
measurement-name: DC50 (µM)

# molecule, unit-name, reading
records = [
    ("Nc1ccc(-c2nc3nc(N)nc(N)c3nc2-c2ccc(N)cc2)cc1", "µM", 12),
    ("O=C1c2cccc3cc([N+](=O)[O-])cc(c23)C(=O)N1CCN1CCCC1", "µM", 13),
]

I = Cc1cc2nc3ccc(N(C)C)cc3[s+]c2cc1N
II = COc1cccc2c1C(=O)c1c(O)c3c(c(O)c1C2=O)C[C@@](O)(C(C)=NO)C[C@@H]3O[C@H]1C[C@H](N)[C@H](O)[C@H](C)O1
III = CCC(=O)c1ccc(O)c(O)c1
Ranking field: DC50; order: falling. Would you mind listing the labels in the order requested?
I, II, III
